Organism: Rattus norvegicus
assay details: Open TG-GATES - Regimen: Daily Repeat
Format: toxicity, organism-based, Sprague-Dawley
Parameters: regimen Daily Repeat, gender Male, age 6 weeks
conditions used: in vivo, po, 300 mg/kg, […], tissue Plasma, route gavage, dose level Middle, time 7 day
quantity kind: K (meq/L)
Give bare numbers, in meq/L.

{"columns": ["compound", "unit of measure", "reading"],
 "data": [
  ["CC(C)(S)[C@@H](N)C(=O)O [PENICILLAMINE]", "meq/L", 4],
  ["O=C(O)c1cccnc1 [NIACIN]", "meq/L", 4.3],
  ["O=C(N[C@H](CO)[C@H](O)c1ccc([N+](=O)[O-])cc1)C(Cl)Cl [CHLORAMPHENICOL]", "meq/L", 4]
]}

// below: K requested for another compound
INPUT: Need K, item CCN1CCCC1CNC(=O)c1cc(S(N)(=O)=O)ccc1OC (centres undefined) [SULPIRIDE]
OUTPUT: 4.2
